biological target: Glucose transporter (Leishmania mexicana) (UniProt O61059); assay: ST_JUDE_LEISH: Cytotoxicity at 2uM final concentration against transgenic Leishmania Mexicana promastigotes LmGT2 that are glucose transport deficient and complemented with the L. Mexicana glucose transporter 2. Activity is measured by DNA content using SYBR green in vitro; format: functional
REPORTED_ENDPOINT: inhibition
Please report the result as a number followed by the unit.

Look over these answered cases.
In: What does the record list as inhibition for CC(=O)c1cccc(NC(=O)C2c3ccccc3C(=O)N(CC(C)C)C2c2cccs2)c1 (configuration not stated) ?
Out: 0.19%

In: What does the record list as inhibition for CCN(CC)CCCC(C)Nc1cc(C)nc2cc(Cl)ccc12 (configuration not stated) ?
Out: 0.08%

In: What does the record list as inhibition for CCN(CC)/C(=N\CCCCCC/N=C(\NC(=N)c1ccc(Cl)cc1)N(CC)CC)NC(=N)c1ccc(Cl)cc1 ?
Out: 2.59%

In: What does the record list as inhibition for CCCCCNc1nc(Nc2ccccc2C)nc2ccccc12 ?
Out: 11%

In: What does the record list as inhibition for Cc1cccc2nc(-c3ccc(-c4ccc(CN5CCN(CCN6CCOCC6)CC5)cc4)s3)[nH]c12 ?
Out: 1.02%

In: What does the record list as inhibition for CC[C@@H]([C@@H](CC(C)C)C(=O)N[C@@H](CCCCNC(=O)OCc1ccccc1)C(=O)Nc1ccccn1)N(O)C=O ?
Out: 3.88%

Next item in the queue.
In: What does the record list as inhibition for CCC(CN1C(=N)NC(c2ccccc2)(c2ccccc2)C1=O)c1ccccc1 (configuration not stated) ?
Out: 0.9%

###

Quick reference: inhibition of the listed items.
target: Glucose transporter (Leishmania mexicana); test: ST_JUDE_LEISH: Cytotoxicity at 2uM final concentration against transgenic Leishmania Mexicana promastigotes LmGT2 that are glucose transport deficient and complemented with the L. Mexicana glucose transporter 2. Activity is measured by DNA content using SYBR green in vitro; format: functional
Report the value in % with no unit label.

Look over these answered cases.
In: What does the record list as inhibition for CC(CNC(=O)C(c1cc2ccccc2o1)N1CCN(C(c2ccccc2)c2ccccc2)CC1)c1ccccc1 (stereo not drawn) ?
Out: 3.92

In: What does the record list as inhibition for COc1ccc2nccc(N3CCN(CCNCc4ccc5c(n4)NC(=O)CS5)CC3)c2c1 ?
Out: 0.44

In: What does the record list as inhibition for COc1cccc(-c2cc3c(NCc4ccncc4)nccc3s2)c1 ?
Out: 0.82

In: What does the record list as inhibition for O=C(/C=C/c1ccc(Cl)c(Cl)c1)NCCCCCN1CCC(NC(=O)Nc2ccc(Oc3ccccc3)cc2)C1 (stereo not drawn) ?
Out: 0.16

In: What does the record list as inhibition for CCn1c(-c2nonc2N)nc2c(-c3cccc(NC(=O)Nc4ccc(Cl)cc4)c3)ncc(OCCCN)c21 ?
Out: 1.46

In: What does the record list as inhibition for Cc1nc2ccc3ccc(CNc4ccc(C#N)cc4)cc3c2c(=O)[nH]1 ?
Out: 56

More entries:
In: What does the record list as inhibition for O=C(NCc1cccc(OC(F)(F)F)c1)c1cnc2c(c1)nc(-c1c[nH]c(-c3ccccc3)n1)n2CCc1c[nH]cn1 ?
Out: -2.01

In: What does the record list as inhibition for CC1CN(CCCn2c3ccccc3c3ccc(C(=O)CCCN(C)C)cc32)CC(C)N1 (stereo not drawn) ?
Out: 1.24
